Where do the numbers come from? From PubChem BioAssay.

- PROCEDURE SUMMARY: binders from COS7 lysate, DM2A8 probe, primary screen, torsin A project, cell lysate, small-molecule microarray, fluorescence 635/667 (AID 1065)
- CONDITION CONTEXT: higher = more signal, COS7 lysate expressing mutant human TOR1A
ASSAY METRIC: composite z-score

Worked examples, 4 compounds total:
In [3]: df
Out[3]:
                                   compound  experimental_value
0  CCCCC(O)C1C=CC2C(=O)N(c3ccccc3)C(=O)C2N1Nc1ccc(C#N)cc1 (stereo not given)              -0.472
1  COc1ccc(C(=O)Nc2cccc(CN3C(=O)[C@@]4(O[C@@H](CC(=O)N5CCC[C@H]5CO)[C@H]([Si](C)(C)c5ccc(OC)cc5)[C@H]4C)c4ccccc43)c2)cc1               0.484
2  CC(C)(C)N1CC=CC23O[C@@H]4C=CCCOC(=O)C4[C@H]2C(=O)N(CCCCCCO)[C@@H]3C1=O (stereo not given in full)               -1.39
3  CC=CC(O)C1C=CC2C(=O)NC(=O)C2N1Nc1ccc(Cl)cc1Cl (stereo not given)               0.453

### Prompt What does the record list as composite z-score for CCCCCCc1nc(Cc2cc(OC)c(OC)c(OC)c2)cc2c1[Si](C(C)C)(C(C)C)O[C@H]2c1ccccc1 ?
### Response 0.251

* * *

- PROCEDURE SUMMARY: probe aLefty2 binding to arrayed compounds – biochemical, biotinylated probe, 635/667 nm fluorescence, primary screen (AID 1094);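 note: score merges spot fluorescence near 667 nm with spot signal-to-noise ratio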
- CONDITION CONTEXT: small-molecule microarray, higher = more signal
ASSAY METRIC: composite z-score
# answer = number (no unit)

Worked examples, 5 compounds total:
COMPOUND	composite z-score
Cc1ccc(S[C@]2(C(=O)NCCCN(C)C)CC(=O)N(C3Cc4ccccc4C3)[C@@H]2c2ccc(CO)cc2I)cc1	-0.035
CCCC[C@H]1OB(O)C[C@H]2C1=C(COc1ccccc1)C[C@H]1C(=O)C=CC(=O)[C@H]12	-0.377
NC(=O)N1C(=O)C2C(C1=O)C1C=C(CCCO)C2C(c2ccc(CN3CCCC3)cc2)N1Cc1sc2ccccc2c1Cl (stereo not drawn)	-0.208
COC(=O)[C@@]1(Cc2ccc(OC)cc2)[C@H]2c3cc(C(=O)N4CCCC4)n(CCn4cc([N+](=O)[O-])nc4C)c3C[C@H]2CN1C(=O)c1ccccc1	1.25
CCCC[C@H]1C[C@@H]1[C@@H]1N(C(C)=O)[C@H](c2cccc(OC)c2)CC12CC2	0.116

### Prompt What does the record list as composite z-score for O=C1c2ccccc2[C@@]2(Cc3ccccc3N(Cc3ccccc3)C2=O)[C@H](c2ccc(CO)cc2)N1Cc1ccccc1Cl ?
### Response -0.0812

### Prompt Do the same for CC(C)=CCCC=C(C)C(O)C1C=CC2C(=O)N(c3ccccc3)C(=O)C2N1Nc1ccc(C#N)cc1 (stereo not drawn) please
### Response -0.152

### Prompt Do the same for CCCCC(O)C1C=CC2C(=O)N(c3ccccc3)C(=O)C2N1Nc1ccc(C#N)cc1 (stereo not drawn) please
### Response 0.444

### Prompt Do the same for COc1cc(OC)c(C(O)C2C=CC3C(=O)N(c4ccccc4)C(=O)C3N2Nc2ccc(C(C)C)cc2)cc1Br (stereo not drawn) please
### Response 0.136

### Prompt Do the same for C=CCOC(=O)[C@H]1[C@@H]2C(=O)O[C@@H](c3ccccc3)[C@@H](c3ccccc3)N2[C@@H](c2ccc(OCCOC(=O)[C@@H]3C[C@@H]4C(=O)N[C@@H](CCCC[N+](C)(C)C)C(=O)N4[C@@H]3c3ccc(O)cc3)cc2)[C@]12C(=O)Nc1ccc(I)cc12 please
### Response -0.09

### Prompt Do the same for CN1C(=O)C2C=CC(C(O)c3ccc(-c4ccccc4)s3)N(NC(=O)OC(C)(C)C)C2C1=O (stereo not drawn) please
### Response 0.367

### Prompt Do the same for [N-]=[N+]=NCc1ccccc1[C@@H]1OC(c2ccc(OCCCO)cc2)=N[C@]1(Cc1ccccc1N=[N+]=[N-])C(=O)O please
### Response 0.515

### Prompt Do the same for CC1CC/C=C\[C@H]2OC34C=CCN(c5ccc(Cl)cc5)C(=O)[C@H]3N(CCCCCCO)C(=O)[C@]4(C)C2C(=O)O1 (stereo partly drawn) please
### Response -0.233

* * *

- Tested on: Lefty1
- PROCEDURE SUMMARY: Lefty1 protein binding to printed compounds – biochemical, small-molecule microarray, 635/667 nm fluorescence, primary screen (AID 1139)
- CONDITION CONTEXT: fluorescence 635/667, higher = more signal
ASSAY METRIC: composite z-score
# answer = number (no unit)

### Prompt What does the record list as composite z-score for CCOC(=O)C1=CC[C@@H](c2ccc(OC)cc2)N(S(=O)(=O)c2ccc(C)cc2)[C@H]1CC ?
### Response 0.689

### Prompt Do the same for COc1cc(C(O)C2C=CC3C(=O)N(c4ccccc4)C(=O)C3N2Nc2ccccc2)cc(OC)c1OC (stereo unspecified) please
### Response -0.383

### Prompt Do the same for CO[C@H]1O[C@H](CO)[C@@H](OC(=O)Nc2ccc3c(c2)OCO3)[C@H](OC(=O)Nc2ccccc2-c2ccccc2)[C@H]1OC(=O)Nc1ccccc1-c1ccccc1 please
### Response -0.152

### Prompt Do the same for COC(=O)[C@@]1(Cc2ccccc2)[C@H]2c3cc(C(=O)N(C)C)n(CCSC(=N)N)c3C[C@H]2CN1C(=O)c1ccccc1 please
### Response -0.318

### Prompt Do the same for CC(=O)OCC1C2CC[C@H]3C(OCc4ccc(F)cc4C(F)(F)F)OC[C@]4(C)[C@H]3C2=C(CN4C(=O)OC(C)(C)C)[C@H](C)C1COC(C)=O (stereo partly specified) please
### Response -0.372

### Prompt Do the same for CC1CC/C=C\[C@H]2OC34C=CCN(Cn5nnc6ccccc65)C(=O)[C@H]3N(CCCCCCO)C(=O)[C@@H]4C2C(=O)O1 (stereo partly specified) please
### Response -0.654

### Prompt Do the same for CC(C)C(O)C1C=CC2C(=O)NC(=O)C2N1Nc1ccccn1 (stereo unspecified) please
### Response 0.129

* * *

- PROCEDURE SUMMARY: binders of probe aHhip on microarray, primary screen, stem cell growth factor project, biochemical, small-molecule microarray, fluorescence 635/667 (AID 1087);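 note: score merges spot fluorescence at 667nm with spot signal to noise ratio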
- CONDITION CONTEXT: higher = more signal
ASSAY METRIC: composite z-score
# answer = number (no unit)

>>> df
                                   compound  experimental_value
0  COC(=O)[C@@]1(Cc2ccc(OC)cc2)[C@H]2c3cc(C(=O)N4CCCC4)n(Cc4ccc(Cl)c(C(F)(F)F)c4)c3C[C@H]2CN1C(=O)c1ccccc1               0.132
1  CCOc1cc(C(O)C2C=CC3C(=O)N(c4ccccc4)C(=O)C3N2Nc2ccccc2F)ccc1O (centres undefined)                0.02
2  O=C1NC(=O)C2C1C=CC(C(O)c1ccc(B(O)O)cc1)N2Nc1ccc(Cl)cc1Cl (centres undefined)             -0.0645

### Prompt What does the record list as composite z-score for COc1ccc(C(=O)Nc2cccc(CN3C(=O)[C@@]4(O[C@@H](CC(=O)N5CCC[C@H]5CO)[C@H]([Si](C)(C)c5ccc(OC)cc5)[C@H]4C)c4ccccc43)c2)cc1 ?
### Response -0.261

* * *

- System: Human papillomavirus type 1a E7 protein (residues 1-88)
- PROCEDURE SUMMARY: HPV1a E7 small-molecule binders, primary screen, biochemical, small-molecule microarray, residues 1-88, 635 nm (AID 1129)
- CONDITION CONTEXT: small-molecule microarray binding, fluorescence 635 nm; higher = more signal
ASSAY METRIC: composite z-score
# answer = number (no unit)

### Prompt What does the record list as composite z-score for Cc1ccc(S[C@]2(C(=O)NC3CC3)CC(=O)N(C(C)C)[C@@H]2c2ccc(CO)cc2I)cc1 ?
### Response 0.882

### Prompt Do the same for COC(=O)[C@@]1(Cc2ccc(OC)cc2)[C@H]2c3cc(C(=O)N4CCCC4)n(CCn4cc([N+](=O)[O-])nc4C)c3C[C@H]2CN1C(=O)c1ccccc1 please
### Response 1.2

### Prompt Do the same for Cc1ccc(S[C@]2(C(=O)NCCCN(C)C)CC(=O)N(Cc3ccccc3C(F)(F)F)[C@@H]2c2ccc(CO)cc2I)cc1 please
### Response -0.0904

### Prompt Do the same for CCCC=C(CCC)[C@@H](NC(=O)OCC(C)C)c1ccc(C(=O)OC)cc1 please
### Response 0.717

### Prompt Do the same for COC(=O)C(CC#Cc1ccc2c(c1)[C@]1(C(=O)N2)[C@H](c2ccc(OCCO)cc2)N2[C@H](c3ccccc3)[C@H](c3ccccc3)OC(=O)[C@H]2[C@@H]1C(=O)N1CCCCCCC1)C(=O)OC please
### Response 1.17

### Prompt Do the same for [N-]=[N+]=Nc1ccccc1[C@@H]1OC(c2ccc(OCCCO)cc2)=N[C@]1(Cc1ccccc1)C(=O)NCCN1CCOCC1 please
### Response 1.28

### Prompt Do the same for COc1ccc(C(O)C2C=CC3C(=O)N(c4ccccc4)C(=O)C3N2Nc2ccc([N+](=O)[O-])cc2)c2ccccc12 (stereo not drawn) please
### Response 1.25

### Prompt Do the same for COC(=O)[C@@]1(Cc2ccc(OC)cc2)[C@H]2c3cc(C(=O)N4CCCC4)n(Cc4c(CO)[nH]cc(C)c4=O)c3C[C@H]2CN1C(=O)c1ccccc1 please
### Response 1.24

### Prompt Do the same for COC(=O)[C@@]1(Cc2ccc(F)cc2)[C@H]2c3cc(C(=O)N(C)C)n(C)c3C[C@H]2CN1C(=O)c1ccccc1 please
### Response 0.372

### Prompt Do the same for C=CCNC(=O)[C@H]1[C@@H]2C(=O)O[C@@H](c3ccccc3)[C@@H](c3ccccc3)N2[C@@H](c2ccc(OCCO)cc2)[C@]12C(=O)Nc1ccc(C#CC3(O)CCCCCC3)cc12 please
### Response 1.18

### Prompt Do the same for CCC(CC)C(O)C1C=CC2C(=O)N(c3ccccc3)C(=O)C2N1Nc1ccccc1F (stereo not drawn) please
### Response 1.16

### Prompt Do the same for CC(C)N1C(=O)C[C@@](C(=O)NCCN2CCOCC2)(c2ccc([N+](=O)[O-])cc2)[C@H]1c1ccc(CO)cc1 please
### Response -0.886

### Prompt Do the same for O=C1C[C@@](C(=O)NC2CC2)(c2ccc([N+](=O)[O-])cc2)[C@@H](c2ccc(CO)cc2)N1C1CCCCC1 please
### Response 1.23
